Data provenance is patent US20230113944A1.

# measuredTarget: human nSMase2 (Homo sapiens, UniProt Q9NY59)
# Construct: expressed in transfected cells; host or cells: HEK293T
# Sequence (Q9NY59 whole entry): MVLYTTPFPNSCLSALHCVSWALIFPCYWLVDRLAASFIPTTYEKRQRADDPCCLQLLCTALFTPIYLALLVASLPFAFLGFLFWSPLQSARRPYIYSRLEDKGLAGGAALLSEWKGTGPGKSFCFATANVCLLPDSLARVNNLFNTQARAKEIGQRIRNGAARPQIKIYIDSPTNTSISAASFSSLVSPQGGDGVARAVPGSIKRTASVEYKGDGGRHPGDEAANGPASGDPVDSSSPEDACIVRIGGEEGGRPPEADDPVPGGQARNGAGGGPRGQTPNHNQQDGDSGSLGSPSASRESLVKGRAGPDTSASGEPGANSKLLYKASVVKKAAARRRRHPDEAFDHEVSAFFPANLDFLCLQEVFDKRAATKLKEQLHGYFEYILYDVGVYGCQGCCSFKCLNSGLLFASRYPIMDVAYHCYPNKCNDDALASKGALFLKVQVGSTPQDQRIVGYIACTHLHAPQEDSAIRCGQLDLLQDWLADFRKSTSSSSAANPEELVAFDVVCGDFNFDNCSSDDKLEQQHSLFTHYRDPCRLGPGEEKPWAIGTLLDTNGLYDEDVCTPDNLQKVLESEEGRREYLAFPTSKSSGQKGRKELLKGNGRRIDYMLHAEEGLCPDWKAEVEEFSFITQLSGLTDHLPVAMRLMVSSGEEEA
# assayComment: biochemical
# Assay type: biochemical
# studyConditions: IC50 (nSMase2) Groups: A-D
pIC50: −log10 of the molar value.

# compound, pIC50
measured = [
    ("C[C@@]12CCO[C@@H]1Nc1ccc(Cl)nc12", "< 4.30"),
    ("COc1ccnc2c1N[C@H]1OCC[C@@]21C", "< 4.30"),
    ("CN1c2ccc(OC(=O)Nc3ccc(OC(F)(F)F)cc3)cc2[C@]2(C)CCO[C@H]12 [drawing 35]", "4.30 to 5.00"),
    ("COc1ccc2c(n1)[C@]1(C)CCN(S(=O)(=O)c3ccc(C)cc3)[C@@H]1N2", "4.30 to 5.00"),
    ("COc1ccc(NC(=O)Oc2ccc3c(c2)[C@]2(C)CCO[C@@H]2N3C)cc1 [drawing 33]", "5.00 to 6.00"),
]
